- RUN_DESCRIPTION: modulators of CIT2-GFP expression in yeast, confirmation, S. cerevisiae, GFP fusion, cherry picks, mother/daughter gates (AID 2274)
- CONDITION_PARAMETERS: S. cerevisiae CIT2-GFP strain, flow cytometry, 3 h; measured here: daughter cell gate; at 10 µM; stronger effect = higher value
Can you tell me GFP response, % of DMSO for the items I'm about to list?
Give bare numbers, in %.

Kindly note the recorded GFP response, % of DMSO for Cc1cccc(NC(=O)CCCN2C(=O)c3cccc4cccc(c34)C2=O)c1 , which is 97.4

Kindly note the recorded GFP response, % of DMSO for O=C(c1ccccc1F)N1CCN(c2cccc(C(F)(F)F)c2)CC1 , which is 97.6

Kindly note the recorded GFP response, % of DMSO for Cc1ccc(-c2csc3ncn(Cc4ccc(C(=O)O)cc4)c(=O)c23)cc1C , which is 105

Hey, can you go through the list below and give me GFP response, % of DMSO for every item?
1. CCCc1[nH]nc2c1C(c1ccc(O)cc1OCC)C(C#N)=C(N)O2 (stereo not drawn)
2. CNc1nc(-c2ccccc2)cc(C(F)(F)F)c1C#N
3. Cc1ccc(/C=c2\sc3nc(-c4cccs4)nn3c2=O)o1
4. O=C(Nc1nc(-c2ccccc2Cl)cs1)c1cccnc1
5. O=c1[nH]c(-c2ccccn2)nc(C(F)(F)F)c1Br
6. COc1ccccc1C(=O)NNC(=O)C(=O)Nc1cccc(Cl)c1C
7. COc1ccc(CCNc2nc(-c3sc(C)nc3C)cs2)cc1OC
8. O=C(COC(=O)c1n[nH]c2ccccc12)c1cccc(Br)c1

1. 105
2. 99.7
3. 101
4. 94.8
5. 106
6. 122
7. 103
8. 95.8

Hey, can you go through the list below and give me GFP response, % of DMSO for every item?
1. CCCc1[nH]nc2c1C(c1ccc(OC)c(CSC3=NCCS3)c1)C(C#N)=C(N)O2 (stereo not drawn)
2. COc1ccc(OC)c(C(=O)/C=C/c2ccccc2C(F)(F)F)c1
3. COc1ccc(N2CCN(C(=O)c3ccc(OCC4CCCO4)cc3)CC2)cc1 (stereo not drawn)
4. O=C(O)CCCn1nc(-c2ccccc2)c2ccccc21
5. O=C1c2ccsc2SCCN1Cc1cccc(F)c1
6. Cc1cc(NCCN2CCOCC2)n2nc(C)c(-c3ccccc3)c2n1
7. CCCC(=O)Nc1ccc(NC(=O)c2cc3ccccc3o2)c(OC)c1

1: 94.6; 2: 96.8; 3: 101; 4: 106; 5: 90.2; 6: 94.6; 7: 99.2

Hey, can you go through the list below and give me GFP response, % of DMSO for every item?
1. COc1cccc(N=Cc2nc(-c3ccccc3)oc2OC(C)=O)c1
2. O=C(CCc1ccccc1)NNC(=S)NC(=O)c1ccccc1
3. Cc1nc2c(-c3ccc(F)cc3)c(C)nn2c(N2CCOCC2)c1C
4. CCN(CC)C(=O)c1ccc(-c2cccs2)s1
5. COc1cc(/C=N/Nc2nc(C)cc(=O)[nH]2)ccc1O

95.4
113
104
97.2
121

Hey, can you go through the list below and give me GFP response, % of DMSO for every item?
1. O=C(/C=C/c1ccc(F)cc1)NC(=S)NNC(=O)c1cnccn1
2. CCc1ccc(C(=O)/C=C/c2ccc([N+](=O)[O-])o2)cc1
3. CN1C(=O)/C(=N\OC(=O)c2cccc3ccccc23)c2ccccc21
4. CCCc1[nH]nc2c1C(c1ccc(OC(=O)N3CCOCC3)c(OC)c1)C(C#N)=C(N)O2 (stereo not drawn)
5. Cc1sc(NC(=O)c2ccco2)nc1-c1ccccc1
6. COc1cccc(C2CC(c3c(-c4ccccc4)c4cc(Cl)ccc4[nH]c3=O)=NN2S(C)(=O)=O)c1OC (stereo not drawn)

1. 101
2. 156
3. 102
4. 89.9
5. 98.1
6. 102

* * *

- RUN_DESCRIPTION: promoters of myeloid differentiation in arrested cells, primary screen, cell-based, GFP/MAC1 double positive, flow cytometry, validation set (AID 588685);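 note: compound exposure lasts four days before antibody staining and flow analysis; 0% = DMSO wells and 100% = 5 µM fulvestrant positive control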
- CONDITION_PARAMETERS: ER-HoxA9 marrow cells, stronger effect = higher value, normalized: vehicle 0, fulvestrant 100
QUANTITY_KIND: differentiation response (%)
Numbers only, in %.

Kindly note the recorded differentiation response for CNC[C@H](O)c1ccc(O)c(O)c1 , which is -8.27

Kindly note the recorded differentiation response for Cc1ccccc1NC(=O)C1c2ccccc2Oc2ccccc21 , which is -4.09

Kindly note the recorded differentiation response for CCOc1ccccc1C(=O)NCCC(=O)O , which is 16.9

Kindly note the recorded differentiation response for CC(=O)O[C@]1(C(C)=O)CC[C@H]2[C@@H]3C=C(C)C4=CC(=O)CC[C@]4(C)[C@H]3CC[C@@]21C , which is 7.82

***
Kindly note the recorded differentiation response for O=c1c(-c2ccc3c(c2)OCCO3)coc2cc(OC3OC(CO)C(O)C(O)C3O)ccc12 (stereo not given) , which is -14.7

* * *

Can you tell me GFP response, % of DMSO for the items I'm about to list?
- RUN_DESCRIPTION: AGP1-GFP expression modulators, hit retest, confirmation, cell-based, flow cytometry, S. cerevisiae, cherry picks (AID 2273);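 note: median GFP channel fluorescence over the whole cell population gate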
- CONDITION_PARAMETERS: S. cerevisiae AGP1-GFP strain, 3 h, at 10 µM
One number for each entry, in %.

// known answers, use as guide
Kindly note the recorded GFP response, % of DMSO for Cc1noc2ncnc(Sc3c(Cl)cccc3Cl)c12 , which is 88.6

Kindly note the recorded GFP response, % of DMSO for COc1ccccc1/C=C/C(=O)c1ccc(Cl)cc1 , which is 98.9

Kindly note the recorded GFP response, % of DMSO for Cc1ccc(/C(N)=N/OC(=O)c2ccc(F)cc2)cc1 , which is 76.8

Hey, can you go through the list below and give me GFP response, % of DMSO for every item?
1. CCc1nnc(NC(=O)c2nc(S(=O)(=O)Cc3ccccc3)ncc2Cl)s1
2. O=C(Nc1cc(Sc2ccccn2)cc([N+](=O)[O-])c1)c1ccc(Cl)cc1
3. CCOc1ccc(S(=O)(=O)N2CCc3ccccc3C2)cc1
4. O=C(Cc1ccc(Cl)cc1)NNC(=S)NC(=O)c1cccs1

1: 97.3; 2: 97.4; 3: 96.2; 4: 102

* * *

- RUN_DESCRIPTION: yeast TOR pathway RPL19A-GFP modulators, primary screen, cell-based, S. cerevisiae, multiplex flow cytometry (AID 1862);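 note: lower values mimic rapamycin by blocking the RPL19A rise seen in DMSO cells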
- CONDITION_PARAMETERS: S. cerevisiae RPL19A-GFP strain, flow cytometry fluorescence, 3 h; at 10 µM; stronger effect = lower value
Records with an inconclusive call do not appear.
Can you tell me percent of DMSO control GFP for the items I'm about to list?
Answers are plain numbers, in %.

Hey, can you go through the list below and give me percent of DMSO control GFP for every item?
1. CC(C)Oc1ccc(C(CC(=O)O)c2ccc(F)cc2)cc1 (stereo unspecified)
2. Nc1ccc(N)c(C(=O)O)c1
3. CCOC(=O)c1cnc2ccccc2c1NCCO

1. 102
2. 100
3. 108

* * *

Can you tell me percent response of DMSO control for the items I'm about to list?
- RUN_DESCRIPTION: modulators of CIT2-GFP expression in yeast, primary screen, S. cerevisiae, GFP fusion, multiplex flow cytometry (AID 1870);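 note: barcoded CIT2-GFP strain pooled with four other GFP strains with rapamycin as positive control; median GFP fluorescence per well over plate mean of DMSO wells so 100% = DMSO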
- CONDITION_PARAMETERS: 3 h, at 10 µM, stronger effect = higher value
Answers are plain numbers, in %.

// known answers, use as guide
Kindly note the recorded percent response of DMSO control for COc1cccc(N2C(=O)[C@H]3C(C(=O)c4cnccn4)=NN[C@H]3C2=O)c1 , which is 111

Kindly note the recorded percent response of DMSO control for O=C(NCCCCCc1nc2ccccc2[nH]1)c1ccccc1Cl , which is 98.6

Kindly note the recorded percent response of DMSO control for Cc1oc2cc(O)ccc2c(=O)c1Oc1ccccc1Br , which is 93

Kindly note the recorded percent response of DMSO control for CC1CCCc2sc3ncn(N)c(=N)c3c21 (centres undefined) , which is 105

Kindly note the recorded percent response of DMSO control for Cc1ccccc1C(OCCN(C)C)c1ccccc1 (centres undefined) , which is 102

Kindly note the recorded percent response of DMSO control for CCCCOc1ccc(OCCCN2CCOCC2)cc1 , which is 104

Kindly note the recorded percent response of DMSO control for COc1ccc(-c2coc3cc(O)cc(O)c3c2=O)cc1 , which is 116

Kindly note the recorded percent response of DMSO control for CC(C)(C)NCC(O)c1cc(O)cc(O)c1 (centres undefined) , which is 95.1

Hey, can you go through the list below and give me percent response of DMSO control for every item?
1. CC(=O)NC1C(OCCOc2ccc(Cl)cc2Cl)OC(COC(C)=O)C(OC(C)=O)C1OC(C)=O (centres undefined)
2. COc1ccc(C=NCC2COc3ccccc3O2)cc1OC (centres undefined)
3. COc1ccc(CN(CCN(C)C)c2ccccn2)cc1
4. O=C(c1ccc(-c2ccccc2)c(F)c1)C1CCCN(C(=O)c2cncs2)C1 (centres undefined)
5. COc1cccc(CN2CCN(C(=O)c3ccc(-c4ccccc4)cc3)CC2)c1
6. CCOc1ccc(NC(=O)N[C@@H](CCSC)C(=O)OC)cc1

1: 108; 2: 98.8; 3: 108; 4: 95.9; 5: 103; 6: 104
